Data origin: paper PMC7319089

# METHOD: Pharmacokinetics in SD rats after oral administration of FA extract, NA, NHE or NA-NHE (UPLC-MS/MS of plasma, DAS 3.1)
# Type: in vivo, Sprague-Dawley (SD) rats
# CONDITION PARAMETERS: male, Sprague-Dawley, rat, plasma, po, 10.8 g/kg, male SD rats, oral FA extract 10.8 g/kg of the original medicinal material; statistical moment parameters; n = 6; read-out: Tmax
Measured Tmax, listed per entry.
The reply should be a number in h, with the unit left off.

Which measured Tmax value corresponds to COc1ccc(-c2cc(=O)c3c(OC)c(OC)c(OC)c(OC)c3o2)cc1OC [Nobiletin, nobiletin] ? 1.17

And for O=C1C[C@@H](c2ccc(O)cc2)Oc2cc(O)cc(O)c21 [Naringenin, naringenin] ? 9.33

And for COc1ccc([C@@H]2CC(=O)c3c(O)cc(O)cc3O2)cc1O [Hesperetin, hesperetin] ? 9.67

====

# METHOD: Pharmacokinetics in SD rats after oral administration of FA extract, NA, NHE or NA-NHE (UPLC-MS/MS of plasma, DAS 3.1)
# Assay type: in vivo, Sprague-Dawley (SD) rats
# CONDITION PARAMETERS: male, Sprague-Dawley, rat, plasma, po, 10.8 g/kg, male SD rats, oral FA extract 10.8 g/kg of the original medicinal material; two-compartment model parameters; n = 6; read-out: t1/2β (converted)
Measured half-life, listed per entry.
The reply should be a number in h, with the unit left off.

See these solved cases before continuing.
# COMPOUND, OBSERVED RESULT
data = [
    ("C[C@@H]1O[C@@H](O[C@H]2[C@H](Oc3cc(O)c4c(c3)O[C@H](c3ccc(O)cc3)CC4=O)O[C@H](CO)[C@@H](O)[C@@H]2O)[C@H](O)[C@H](O)[C@H]1O", 2.65),
    ("COc1ccc2ccc(=O)oc2c1CC1OC1(C)C (stereo not drawn)", 6.48),
    ("COc1ccc([C@@H]2CC(=O)c3c(O)cc(O)cc3O2)cc1O", 3.86),
    ("O=C1C[C@@H](c2ccc(O)cc2)Oc2cc(O)cc(O)c21", 2.65),
    ("COc1ccc2ccc(=O)oc2c1CC(O)C(C)(C)O (stereo not drawn) [Meranzin hydrate, meranzin hydrate]", 6.91),
]

Please look at the following compound next.
Which measured half-life value corresponds to COc1ccc(-c2cc(=O)c3c(OC)c(OC)c(OC)c(OC)c3o2)cc1OC ? 4.49

====

# METHOD: Stability of the analytes in rat plasma (QC samples)
# Format: in vitro ADME
# CONDITION PARAMETERS: three cycles -20 °C/room temperature, middle QC concentration (77.6 / 58.92 / 49.4 / 16.72 / 8.44 ng/mL), n = 6
Measured Free–thaw Stability RE, listed per entry.
The reply should be a number in %, with the unit left off.

# MOLECULE, ASSAY READOUT, OBSERVED RESULT
rows = [
    ("O=C1C[C@@H](c2ccc(O)cc2)Oc2cc(O)cc(O)c21", "Free–thaw Stability RE", 8.14),
    ("COc1ccc([C@@H]2CC(=O)c3c(O)cc(O)cc3O2)cc1O", "Free–thaw Stability RE", -10.70),
]

Which measured Free–thaw Stability RE value corresponds to COc1ccc2ccc(=O)oc2c1CC(O)C(C)(C)O (centres unmarked) [Meranzin hydrate, meranzin hydrate] ? 0.71

And for COc1ccc(-c2cc(=O)c3c(OC)c(OC)c(OC)c(OC)c3o2)cc1OC ? 10.46

And for COc1ccc2ccc(=O)oc2c1CC1OC1(C)C (centres unmarked) ? 11.07

====

Measured V1/F, listed per entry.
# METHOD: Pharmacokinetics in SD rats after oral administration of FA extract, NA, NHE or NA-NHE (UPLC-MS/MS of plasma, DAS 3.1)
# Assay type: in vivo, Sprague-Dawley (SD) rats
# CONDITION PARAMETERS: male SD rats, oral FA extract 10.8 g/kg of the original medicinal material; two-compartment model parameters; n = 6
The reply should be a number in L/kg, with the unit left off.

# COMPOUND, UNIT INFO, V1/F
records = [
    ("COc1ccc([C@@H]2CC(=O)c3c(O)cc(O[C@@H]4O[C@H](CO)[C@@H](O)[C@H](O)[C@H]4O[C@@H]4O[C@@H](C)[C@H](O)[C@@H](O)[C@H]4O)cc3O2)cc1O", "L/kg", 7.17),
]

Which measured V1/F value corresponds to COc1ccc2ccc(=O)oc2c1CC(O)C(C)(C)O (stereo not drawn) [Meranzin hydrate, meranzin hydrate] ? 4.30

And for COc1ccc(-c2cc(=O)c3c(OC)c(OC)c(OC)c(OC)c3o2)cc1OC ? 6.80

====

# METHOD: Pharmacokinetics in SD rats after oral administration of FA extract, NA, NHE or NA-NHE (UPLC-MS/MS of plasma, DAS 3.1)
# Assay type: in vivo, Sprague-Dawley (SD) rats
# CONDITION PARAMETERS: male, Sprague-Dawley, rat, plasma, po, 10.8 g/kg, male SD rats, oral FA extract 10.8 g/kg of the original medicinal material; statistical moment parameters; n = 6
Measured log10(AUC(0-inf)), listed per entry.
In our notation, the value equals log10 of AUC(0-inf) in ng·h/mL.

# COMPOUND, log10(AUC(0-inf))
records = [
    ("COc1ccc2ccc(=O)oc2c1CC1OC1(C)C (centres unmarked)", 1.91),
    ("COc1ccc([C@@H]2CC(=O)c3c(O)cc(O)cc3O2)cc1O", 3.64),
    ("COc1ccc2ccc(=O)oc2c1CC(O)C(C)(C)O (centres unmarked) [Meranzin hydrate, meranzin hydrate]", 4.06),
    ("COc1ccc(-c2cc(=O)c3c(OC)c(OC)c(OC)c(OC)c3o2)cc1OC", 2.68),
]

Please look at the following compound next.
Which measured log10(AUC(0-inf)) value corresponds to O=C1C[C@@H](c2ccc(O)cc2)Oc2cc(O)cc(O)c21 ? 4.29

====

# METHOD: Pharmacokinetics in SD rats after oral administration of FA extract, NA, NHE or NA-NHE (UPLC-MS/MS of plasma, DAS 3.1)
# Type: in vivo, Sprague-Dawley (SD) rats
# CONDITION PARAMETERS: male SD rats, oral FA extract 10.8 g/kg of the original medicinal material; two-compartment model parameters; n = 6
ASSAY READOUT: t1/2α (h)
The reply should be a number in h, with the unit left off.

# COMPOUND, ASSAY READOUT, UNIT INFO, OBSERVED RESULT
records = [
    ("COc1ccc2ccc(=O)oc2c1CC1OC1(C)C (stereo not drawn) [Meranzin, meranzin]", "t1/2α", "h", 6.39),
    ("COc1ccc([C@@H]2CC(=O)c3c(O)cc(O[C@@H]4O[C@H](CO)[C@@H](O)[C@H](O)[C@H]4O[C@@H]4O[C@@H](C)[C@H](O)[C@@H](O)[C@H]4O)cc3O2)cc1O [NHE, neohesperidin]", "t1/2α", "h", 3.47),
    ("COc1ccc([C@@H]2CC(=O)c3c(O)cc(O)cc3O2)cc1O [Hesperetin, hesperetin]", "t1/2α", "h", 3.47),
]

Which measured t1/2α value corresponds to O=C1C[C@@H](c2ccc(O)cc2)Oc2cc(O)cc(O)c21 [Naringenin, naringenin] ? 2.63

And for COc1ccc(-c2cc(=O)c3c(OC)c(OC)c(OC)c(OC)c3o2)cc1OC [Nobiletin, nobiletin] ? 4.40

And for COc1ccc2ccc(=O)oc2c1CC(O)C(C)(C)O (stereo not drawn) [Meranzin hydrate, meranzin hydrate] ? 6.61

====

# METHOD: Pharmacokinetics in SD rats after oral administration of FA extract, NA, NHE or NA-NHE (UPLC-MS/MS of plasma, DAS 3.1)
# Assay type: in vivo, Sprague-Dawley (SD) rats
# CONDITION PARAMETERS: male, Sprague-Dawley, rat, plasma, po, 10.8 g/kg, male SD rats, oral FA extract 10.8 g/kg of the original medicinal material; two-compartment model parameters; n = 6; read-out: AUC(0-t)
Measured AUC(0-t), listed per entry.
The reply should be a number in ng·h/mL, with the unit left off.

# COMPOUND, UNIT INFO, AUC(0-t)
measured = [
    ("COc1ccc([C@@H]2CC(=O)c3c(O)cc(O)cc3O2)cc1O", "ng·h/mL", 4350),
    ("COc1ccc(-c2cc(=O)c3c(OC)c(OC)c(OC)c(OC)c3o2)cc1OC", "ng·h/mL", 472),
    ("COc1ccc2ccc(=O)oc2c1CC(O)C(C)(C)O (stereo not drawn) [Meranzin hydrate, meranzin hydrate]", "ng·h/mL", 12100),
    ("C[C@@H]1O[C@@H](O[C@H]2[C@H](Oc3cc(O)c4c(c3)O[C@H](c3ccc(O)cc3)CC4=O)O[C@H](CO)[C@@H](O)[C@@H]2O)[C@H](O)[C@H](O)[C@H]1O", "ng·h/mL", 20700),
    ("O=C1C[C@@H](c2ccc(O)cc2)Oc2cc(O)cc(O)c21", "ng·h/mL", 20700),
]

Which measured AUC(0-t) value corresponds to COc1ccc2ccc(=O)oc2c1CC1OC1(C)C (stereo not drawn) ? 84.4
